testTarget: Cytochrome P450 2D6 (Homo sapiens)
assayProtocol: Cytochrome P450 family 2 subfamily D member 6 (CYP2D6) small molecule antagonists: luciferase biochemical (cell-free) qHTS assay (AID 1645840); note: nearly all actives have a fitted effect of over 55% in size
settings: P450-Glo CYP2D6 enzyme, luciferin luminescence, 1 h; series mostly up to 57.4 µM
Records with an inconclusive call do not appear. Activity calls are given as the source filed them. Calls come from the whole dose curve; as a rule, active = well fitted inhibition curve with a large enough effect in the repeat runs; inconclusive = weak or mixed curves; inactive = flat fitted curve, though single readings scatter.
Labels: class 1 (active), class 0 (inactive)

>  <molecule>
O=[N+]([O-])c1ccc(Oc2ccc(N=C=S)cc2)cc1

>  <answerLabel>
class 0

$$$$
>  <molecule>
CCN(c1cc(-c2ccc(CN3CCOCC3)cc2)cc(C(=O)NCc2c(C)cc(C)[nH]c2=O)c1C)C1CCOCC1

>  <answerLabel>
class 1

$$$$
>  <molecule>
Clc1ccc(Nc2nc3ccccc3c3nc(C4CCCCC4)[nH]c23)cc1Cl

>  <answerLabel>
class 0

$$$$
>  <molecule>
O=C(c1ccc(OC(F)F)c(C#Cc2ccccn2)c1)N1Cc2cccnc2C1

>  <answerLabel>
class 1

$$$$
>  <molecule>
O=C(NCCO)c1cccc(-c2cc(Nc3ccc(OC(F)(F)F)cc3)ncn2)c1

>  <answerLabel>
class 1

$$$$
>  <molecule>
O=C(Nc1ccccc1Cl)c1cnc2ccc(C3CCNCC3)cn12

>  <answerLabel>
class 0

$$$$
>  <molecule>
Cc1cc2sc(NC(=O)Cc3ccccc3)nc2cc1Cl

>  <answerLabel>
class 0

$$$$
>  <molecule>
COc1cc(CCc2cc(NC(=O)c3ccc(N4CC(C)NC(C)C4)cc3)n[nH]2)cc(OC)c1 (stereo unspecified)

>  <answerLabel>
class 1

$$$$
>  <molecule>
C=CC(=O)N1CCC(Oc2cc3c(Nc4ccc(Cl)c(Cl)c4F)ncnc3cc2OC)CC1

>  <answerLabel>
class 1

$$$$
>  <molecule>
Nc1cccc(CNC(=O)c2ccc(Oc3ccc(OCc4cccc(F)c4)cc3)nc2)c1

>  <answerLabel>
class 0

$$$$
>  <molecule>
CCc1ccccc1OC[C@@H](O)CN[C@H]1CCCc2ccccc21

>  <answerLabel>
class 1

$$$$
>  <molecule>
CCCCC1CCN(CCCN2C(=O)CCc3ccccc32)CC1

>  <answerLabel>
class 1

$$$$
>  <molecule>
CC[C@H](C(=O)Nc1ccccc1N1CCCC1)c1ccccc1

>  <answerLabel>
class 1

$$$$
>  <molecule>
O=C(NCC1CCN(Cc2cccc(Cl)c2)CC1)[C@@H]1CCCN(c2ncnc3c2nc2n3CCCC2)C1

>  <answerLabel>
class 1

$$$$
>  <molecule>
CCOc1nc(NC(=O)Cc2cc(OC)ccc2OC)cc(N)c1C#N

>  <answerLabel>
class 0

$$$$
>  <molecule>
O=C(N[C@@H]1CCCc2c1cnn2-c1ccc(F)cc1F)c1ccccn1

>  <answerLabel>
class 0

$$$$

###

testTarget: Cytochrome P450 2C9 (Homo sapiens)
assayProtocol: Cytochrome P450 family 2 subfamily C member 9 (CYP2C9) small molecule antagonists: luciferase biochemical (cell-free) qHTS assay (AID 1645842); note: nearly all actives have a fitted effect of over 55% in size; note: potency is the fitted concentration of half-maximal effect
settings: P450-Glo CYP2C9 enzyme assay, luciferin luminescence; series mostly up to 57.4 µM
Inconclusive results are not listed. Active and inactive are the calls of the source. The call rests on the fitted dose curve; in most records, active means well fitted inhibition curve with a large enough effect in the repeat runs; inconclusive means weak or mixed curves; inactive means no such curve, though single readings can be large or run the other way.
valueKind: Potency

>  <compound>
O=C(NCCN1CCC(n2c(=O)[nH]c3ccccc32)CC1)c1cc2cc(F)ccc2[nH]1

>  <valueKind>
Potency

>  <result>
3.38 µM (active)

$$$$
>  <compound>
COc1ccc(N2CCN(C(=O)c3cc4c(s3)-c3ccccc3S(=O)(=O)C4)CC2)cc1

>  <valueKind>
Potency

>  <result>
10.7 µM (active)

$$$$
>  <compound>
COc1cc(N2CCC(O)CC2)ccc1Nc1nc(Nc2ccccc2S(=O)(=O)C(C)C)c2[nH]cnc2n1

>  <valueKind>
Potency

>  <result>
15.1 µM (active)

$$$$
>  <compound>
Cc1cc(-c2cnc(N)c3c(-c4ccc5scnc5c4)csc23)n(C)n1

>  <valueKind>
Potency

>  <result>
10.7 µM (active)

$$$$
>  <compound>
Clc1ccc(Cn2c(Cc3ccccc3)nc3ccccc32)cc1

>  <valueKind>
Potency

>  <result>
9.52 µM (active)

$$$$
>  <compound>
COc1ccc(C2(CNC(=O)c3ccc(NC(=O)c4ccco4)cc3)CCOCC2)cc1

>  <valueKind>
Potency

>  <result>
inactive

$$$$
>  <compound>
CCCCNc1ncc2c(-c3ccc(S(=O)(=O)N4CCOCC4)cc3)nn(C3CCC(O)CC3)c2n1 (stereo not given)

>  <valueKind>
Potency

>  <result>
9.52 µM (active)

$$$$
>  <compound>
O=C(Nc1ccc(Cl)cc1)Nc1cccc(-c2cccc(N3CCCC3)n2)c1

>  <valueKind>
Potency

>  <result>
9.52 µM (active)

$$$$
>  <compound>
O=C1C(c2[nH]c3ccc(S(=O)(=O)O)cc3c2O)=Nc2ccc(S(=O)(=O)O)cc21

>  <valueKind>
Potency

>  <result>
inactive

$$$$
>  <compound>
CNc1nc(NCc2ccc(NS(C)(=O)=O)cc2Cl)cc(-c2ccccn2)n1

>  <valueKind>
Potency

>  <result>
2.68 µM (active)

$$$$

###

testTarget: Cytochrome P450 2D6 (Homo sapiens)
assayProtocol: Cytochrome P450 family 2 subfamily D member 6 (CYP2D6) small molecule antagonists: luciferase biochemical (cell-free) qHTS assay (AID 1645840); note: nearly all actives have a fitted effect of over 55% in size; note: potency is the fitted concentration of half-maximal effect
settings: P450-Glo CYP2D6 enzyme, luciferin luminescence, 1 h; series mostly up to 57.4 µM
Inconclusive results are not listed. Activity calls are given as the source filed them. Calls follow the shape of the dose curve; as a rule, active = well fitted inhibition curve with a large enough effect in the repeat runs; inconclusive = weak or mixed curves; inactive = flat fitted curve, though single readings scatter.
valueKind: Potency

>  <compound>
Cc1c(NC(=O)OCC2COCCN2)cn2ncnc(Nc3ccc4c(cnn4Cc4cccc(F)c4)c3)c12 (centres undefined)

>  <result>
21.3 µM (active)

$$$$
>  <compound>
CCCN1CCC=C(c2cc(-c3ccc(C)cc3)no2)C1

>  <result>
2.68 µM (active)

$$$$
>  <compound>
CCC(CC)Nc1nc(C)c(-c2ccc(OC(F)(F)F)cc2OC)nc1OC

>  <result>
inactive

$$$$
>  <compound>
C[C@H](Oc1cc(-n2cnc3ccc(CN4CCN(C)CC4)cc32)sc1C(N)=O)c1ccccc1C(F)(F)F

>  <result>
21.3 µM (active)

$$$$
>  <compound>
NC(=O)N1CCC(CC(=O)N2CCC(C3c4ncc(Br)cc4CCc4cc(Cl)cc(Br)c43)CC2)CC1 (centres undefined)

>  <result>
16.9 µM (active)

$$$$
>  <compound>
Cc1cnn(-c2ccccc2)c1NC(=O)COCc1ccccc1

>  <result>
inactive

$$$$
>  <compound>
O=C(N[C@H]1CCN(C(=O)c2cc(C(F)(F)F)cc(C(F)(F)F)c2)[C@H](Cc2ccc(Cl)cc2)C1)c1ccnc2ccccc12

>  <result>
inactive

$$$$
>  <compound>
CN(C)[C@@H]1CCc2[nH]c3ccc(NC(=O)c4ccc(F)cc4)cc3c2C1

>  <result>
inactive

$$$$
>  <compound>
Fc1ccc(-c2nc(C3CCNCC3)sc2-c2ccnc(NC3CC3)n2)cc1

>  <result>
6.01 µM (active)

$$$$
>  <compound>
Cc1cn2c(n1)Cc1ccc(Cl)cc1C(c1ccc(N)cc1)=N2

>  <result>
16.9 µM (active)

$$$$
>  <compound>
Cc1cccc(-c2[nH]ncc2-c2ccnc3ccccc23)n1

>  <result>
inactive

$$$$
>  <compound>
CNCc1cc(-c2ccccc2F)n(S(=O)(=O)c2cccnc2)c1

>  <result>
19 µM (active)

$$$$
>  <compound>
O=c1cc(N2CCN(c3cccc(C(F)(F)F)c3)CC2)[nH]c(=O)n1C1CCCCC1

>  <result>
inactive

$$$$
>  <compound>
O=c1[nH]c2ccc(C#CCN3CCC(Cc4ccccc4)CC3)cc2[nH]1

>  <result>
0.338 µM (active)

$$$$
>  <compound>
O=C(NCCN1CCOCC1)c1cc2c(Oc3ccc(NC(=O)C4(C(=O)Nc5ccc(F)cc5)CC4)cc3)ccnc2[nH]1

>  <result>
19 µM (active)

$$$$
>  <compound>
CN(C)S(=O)(=O)c1ccc(NC(=S)N2CCC(C(O)(c3ccccc3)c3ccccc3)CC2)cc1

>  <result>
inactive

$$$$
>  <compound>
O=C(NCC1(c2nc(-c3ccccc3)cs2)CCOCC1)c1cccc(-c2noc(C(F)(F)F)n2)c1

>  <result>
inactive

$$$$
>  <compound>
CCOC(=O)N1CCC(N2CCC[C@@H](NC(=O)c3ccccc3C)C2)CC1

>  <result>
16.9 µM (active)

$$$$
>  <compound>
Cc1cn2cc(C(=O)N(C)CCO)cc(NC3CCOc4cccc(C)c43)c2n1 (centres undefined)

>  <result>
inactive

$$$$
>  <compound>
CC(C)Oc1ccc(-c2cnc3c(-c4ccnc5ccccc45)cnn3c2)cc1

>  <result>
inactive

$$$$
>  <compound>
CCCC(CCC)C(=O)NCc1ccc2c(cnn2-c2ccccc2OC)c1

>  <result>
13.5 µM (active)

$$$$
>  <compound>
CC#C[C@@H](CC(=O)O)c1ccc(OCc2cccc(-c3ccc(C(F)(F)F)cc3)c2)cc1

>  <result>
inactive

$$$$
>  <compound>
O=S(=O)(Cc1ccccc1)Nc1ccc(-c2ccc3c(cnn3-c3ccc(F)cc3)c2)c(C(F)(F)F)c1

>  <result>
inactive

$$$$
>  <compound>
O=C(NCCN1CCC(n2c(=O)[nH]c3ccccc32)CC1)c1ccc2ccccc2c1

>  <result>
12 µM (active)

$$$$
>  <compound>
Cc1nnc(-c2ccc(-c3ccc(C(=O)Nc4ccc(O)c(N5CCN(C)CC5)c4)cc3)c(C)c2)o1

>  <result>
inactive

$$$$
>  <compound>
C=CC(=O)Nc1cccc(Nc2nc(Nc3ccc(NC4CN(CCF)C4)cc3OC)ncc2C(F)(F)F)c1

>  <result>
13.5 µM (active)

$$$$
>  <compound>
CC(C)(C)c1ccc(C(=O)Nc2cn3cc(-n4ccnc4)ccc3n2)cc1

>  <result>
inactive

$$$$
>  <compound>
Cc1nc(N2CCN(C(=O)c3ccco3)CC2)c2c3c(sc2n1)CCCC3

>  <result>
10.7 µM (active)

$$$$
>  <compound>
O=C(NCCN1CCN(c2cccc3ccc(O)cc23)CC1)c1ccc(F)cc1

>  <result>
0.0425 µM (active)

$$$$
